assay: BSK_3C_Vis: BioMAP Diversity Plus: 3C Assay for Morphology Visualization (AID 2283025); conditions: primary human endothelial cells (HUVEC);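 also: fitted both ways so gain or loss versus DMSO counts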;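 as to AC50: light microscopy image of cell morphology used as background control; cells imaged 24 h after dosing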
The source made the active and inactive calls. The calls were made as follows: active = hit-call score of the fitted dose curve at least 0.9, where 1 is the maximum; inactive = score below 0.9.
Measure name: AC50

Observe how each entry below is paired with its result.
INSERT INTO results (compound, result) VALUES
  ('CN(Cc1cnc2nc(N)nc(N)c2n1)c1ccc(C(=O)N[C@@H](CCC(=O)O)C(=O)O)cc1', 'inactive'),
  ('COc1cccc(O)c1', 'inactive'),
  ('C[C@]12CC[C@@H]3c4ccc(O)cc4CC[C@H]3[C@@H]1C[C@@H](O)[C@@H]2O', 'inactive'),
  ('Cc1ccc(C(=O)c2ccccc2)cc1', '38.9 µM (active)'),
  ('CCOC(=O)CN[C@@H](C(=O)N1CC[C@H]1C(=O)NCc1ccc(/C(N)=N/O)cc1)C1CCCCC1', 'inactive');

Items follow; give AC50 for each.
1. COCN(COC)c1nc(N(COC)COC)nc(N(COC)COC)n1
2. CCCCCc1ccc(O)cc1
3. O=C(CCCN1CCC(O)(c2ccc(Cl)cc2)CC1)c1ccc(F)cc1

["inactive", "12.1 µM (active)", "9.8 µM (active)"]

Items follow; give AC50 for each.
1. CC1=NN(c2ccccc2)C(=O)C1
2. CCCCC=O
3. C=COC(=O)C(C)(C)CCCCCC
4. CC(C)(C)c1ccc(O)c(O)c1

inactive
inactive
37.8 µM (active)
8.8 µM (active)

Items follow; give AC50 for each.
1. Cc1cccc2c1ccc1ccccc12
2. CC[N+](CC)(CC)Cc1ccccc1
3. CC(=O)Nc1ccc(O)cc1
4. CS(=O)(=O)c1ccc([C@@H](CC2CCCC2)C(=O)Nc2cnccn2)cc1Cl
5. Oc1cc2ccccc2cc1O

1. inactive
2. inactive
3. inactive
4. inactive
5. inactive

Items follow; give AC50 for each.
1. C=CC(=C)CC/C=C(\C)CCC=C(C)C
2. CCCCC(CC)C(=O)O (stereo not given)
3. CN(C)CCOC(c1ccccc1)c1ccccc1

1: inactive; 2: inactive; 3: inactive

###

read-out: Intercellular Adhesion Molecule 1 (ICAM1), ICAM1 (gene 3383); assay: LTEA_HepaRG_ICAM1: Life Technologies and Expression Analysis (LTEA) Assay for Intercellular Adhesion Molecule 1 (ICAM1) using HepaRG (AID 2283507); conditions: mRNA level, 48 h; actives raise or lower the signal
The source made the active and inactive calls. How the source made its calls: active means hit-call score of the fitted dose curve at least 0.9, where 1 is the maximum; inactive means score below 0.9.
Measure name: AC50

INSERT INTO results (compound, result) VALUES
  ('N=C(N)c1ccc(OCCCCCOc2ccc(C(=N)N)cc2)cc1', '10.9 µM (active)'),
  ('CCC(C)c1ccccc1O (centres undefined)', 'inactive'),
  ('O=C(CCCN1CCC(O)(c2ccc(Cl)cc2)CC1)c1ccc(F)cc1', '75 µM (active)'),
  ('Cc1[nH]nc2c1N=C(c1ccccc1Cl)c1cc([N+](=O)[O-])ccc1N2', 'inactive'),
  ('OCC(CO)(CBr)CBr', 'inactive');

Items follow; give AC50 for each.
1. CCCCC(CC)C(=O)O (centres undefined)
2. CCCCCCCCCCCCCCC
3. CCCCC=O
4. CCCCCCCCCCCCOS(=O)(=O)O

1: inactive; 2: inactive; 3: inactive; 4: inactive

###

tested on: guinea pig Dopamine Transporter (DAT), gene 100714898; assay: NVS_TR_gDAT: NovaScreen (NVS) Transporter Assay for guinea pig Dopamine Transporter (DAT) (AID 2283369);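 also: active compounds lower bound radioligand signal relative to DMSO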
Results filed as inconclusive are left out. Calls of active or inactive are those of the source. How the source made its calls: active means hit-call score of the fitted dose curve at least 0.9, where 1 is the maximum; inconclusive means response in the unintended direction; inactive means score below 0.9.
Hi there, use one of these labels in your reply, thanks! active, inactive

INSERT INTO measurements (compound, qualitative_label) VALUES
  ('NC(=NCCCCCCN=C(N)/N=C(\N)Nc1ccc(Cl)cc1)/N=C(\N)Nc1ccc(Cl)cc1', 'active'),
  ('CC(C)(C)c1ccc(O)c(O)c1', 'active'),
  ('COC1=CC(=O)C[C@@H](C)[C@]12Oc1c(Cl)c(OC)cc(OC)c1C2=O', 'active'),
  ('CCCCCc1ccc(O)cc1', 'active'),
  ('CN(Cc1cnc2nc(N)nc(N)c2n1)c1ccc(C(=O)N[C@@H](CCC(=O)O)C(=O)O)cc1', 'inactive'),
  ('CN(C)CCOC(c1ccccc1)c1ccccc1', 'active');

Which outcome did this test record for the compound CCC(C)c1ccccc1O (configuration not stated) ?
inactive

###

target: human Vitamin D Receptor (VDR), VDR (gene 7421) (UniProt P11473); test: ATG_VDR_TRANS: Attagene TRANS-FACTORIAL HepG2 Assay for human Vitamin D Receptor (VDR) (AID 2283022)
Sequence (P11473 whole entry, looked up): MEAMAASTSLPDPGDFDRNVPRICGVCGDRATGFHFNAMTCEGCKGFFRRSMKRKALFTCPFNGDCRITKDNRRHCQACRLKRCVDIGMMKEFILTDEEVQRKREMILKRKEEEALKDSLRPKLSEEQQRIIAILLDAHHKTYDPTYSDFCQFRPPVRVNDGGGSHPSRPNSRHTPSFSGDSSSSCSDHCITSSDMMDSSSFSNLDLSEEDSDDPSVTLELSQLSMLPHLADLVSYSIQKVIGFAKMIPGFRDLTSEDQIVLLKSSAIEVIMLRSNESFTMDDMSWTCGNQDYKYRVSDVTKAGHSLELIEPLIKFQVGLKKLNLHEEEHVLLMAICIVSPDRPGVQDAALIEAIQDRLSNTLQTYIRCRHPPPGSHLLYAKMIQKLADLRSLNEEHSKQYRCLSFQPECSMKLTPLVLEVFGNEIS
Results filed as inconclusive are left out. Activity calls are given as the source filed them. The calls were made as follows: active = hit-call score of the fitted dose curve at least 0.9, where 1 is the maximum; inconclusive = response in the unintended direction; inactive = score below 0.9.
Hi there, use one of these labels in your reply, thanks! active, inactive

Which outcome did this test record for the molecule CCOC(=O)CN[C@@H](C(=O)N1CC[C@H]1C(=O)NCc1ccc(/C(N)=N/O)cc1)C1CCCCC1 ?
inactive

Which outcome did this test record for the molecule Oc1cccc2c(O)cccc12 ?
inactive

Which outcome did this test record for the molecule OCC1CCC(CO)CC1 (configuration not stated) ?
inactive

Which outcome did this test record for the molecule FC(F)(F)C(F)(F)C(F)(F)C(F)(F)I ?
inactive

Which outcome did this test record for the molecule OCCN1CN(CCO)CN(CCO)C1 ?
inactive

Which outcome did this test record for the molecule FC(OC(F)(F)C(F)(F)C(F)(F)F)C(F)(F)F (configuration not stated) ?
inactive

Which outcome did this test record for the molecule O=C1c2ccccc2C(=O)c2c(O)c(O)cc(O)c21 ?
inactive

###

biological target: Bile acid receptor (Homo sapiens); test: ATG_IR1_CIS: Attagene CIS-FACTORIAL HepG2 Assay for human Nuclear Receptor Subfamily 1 Group H Member 4 (NR1H4), IR1 submotif (AID 2282946); conditions: IR1 reporter transcription, actives raise or lower the signal
Calls of active or inactive are those of the source. Rule for the calls: active = hit-call score of the fitted dose curve at least 0.9, where 1 is the maximum; inactive = score below 0.9.
Hi there, use one of these labels in your reply, thanks! active, inactive

Below, 5 compounds whose answers are already recorded.
INSERT INTO measurements (compound, qualitative_label) VALUES
  ('CC(C)CCOCCC(C)C', 'inactive'),
  ('CCCCCc1ccc(O)cc1', 'inactive'),
  ('CCOC(=O)CN[C@@H](C(=O)N1CC[C@H]1C(=O)NCc1ccc(/C(N)=N/O)cc1)C1CCCCC1', 'inactive'),
  ('NCc1cccc(CN)c1', 'inactive'),
  ('O=P(O)(O)CCC(F)(F)C(F)(F)C(F)(F)C(F)(F)C(F)(F)C(F)(F)F', 'inactive');

Which outcome did this test record for the compound FC(F)(F)C1(F)C(F)(F)C(F)(F)C(F)(F)C(F)(C(F)(F)F)C1(F)F (stereo not drawn) ?
inactive

Which outcome did this test record for the compound C=CC(=O)OCC(CO)(COCC(COC(=O)C=C)(COC(=O)C=C)COC(=O)C=C)COC(=O)C=C ?
inactive

Which outcome did this test record for the compound COCC1CCC(CO)CC1 (stereo not drawn) ?
inactive

Which outcome did this test record for the compound OCC1CCC(CO)CC1 (stereo not drawn) ?
inactive

Which outcome did this test record for the compound COc1cccc(O)c1 ?
inactive

###

assay: CCTE_Mundy_HCI_Cortical_NOG_NeuriteLength: CCTE's Neurite Outgrowth Assay in rat cortical cells for Neurite Length, Mundy Lab (AID 2284213);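 as to AC50: neurites imaged about 48 to 50 h after chemical exposure began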
The source made the active and inactive calls. How the source made its calls: active means hit-call score of the fitted dose curve at least 0.9, where 1 is the maximum; inactive means score below 0.9.
Measure name: AC50

Observe how each entry below is paired with its result.
INSERT INTO assay_data (compound, result) VALUES
  ('Nc1ccn([C@@H]2O[C@H](CO)[C@@H](O)C2O)c(=O)n1 (stereo not given in full)', '5.88 µM (active)'),
  ('CC(C)c1c(C(=O)Nc2ccccc2)c(-c2ccccc2)c(-c2ccc(F)cc2)n1CC[C@@H](O)C[C@@H](O)CC(=O)O', '0.145 µM (active)'),
  ('CC(=O)Nc1ccc(O)cc1', 'inactive'),
  ('O=C(CCCN1CCC(O)(c2ccc(Cl)cc2)CC1)c1ccc(F)cc1', '6.16 µM (active)');

The record that follows has no AC50 shown yet.
Please look up its AC50: O=C1NS(=O)(=O)c2ccccc21
inactive

###

target: human Peroxisome Proliferator-activated Receptor alpha (PPARa), PPARA (gene 5465) (UniProt Q07869); experiment: ATG_PPARa_TRANS: Attagene TRANS-FACTORIAL HepG2 Assay for human Peroxisome Proliferator-activated Receptor alpha (PPARa) (AID 2283001)
Sequence (Q07869 whole entry, looked up): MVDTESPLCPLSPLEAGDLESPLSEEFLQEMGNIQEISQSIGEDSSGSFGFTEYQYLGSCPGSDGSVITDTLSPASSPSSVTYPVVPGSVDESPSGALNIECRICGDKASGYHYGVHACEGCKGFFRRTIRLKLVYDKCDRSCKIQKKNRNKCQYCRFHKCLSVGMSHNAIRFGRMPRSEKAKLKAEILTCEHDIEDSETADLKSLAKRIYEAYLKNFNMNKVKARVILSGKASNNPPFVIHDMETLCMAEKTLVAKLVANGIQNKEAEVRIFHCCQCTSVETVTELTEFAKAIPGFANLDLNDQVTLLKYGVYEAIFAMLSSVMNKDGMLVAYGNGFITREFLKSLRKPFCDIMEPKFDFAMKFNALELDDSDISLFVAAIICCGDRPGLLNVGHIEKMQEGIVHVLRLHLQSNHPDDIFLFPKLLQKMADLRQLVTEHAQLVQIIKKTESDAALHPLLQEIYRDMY
Results filed as inconclusive are left out. Activity calls are given as the source filed them. Rule for the calls: active = hit-call score of the fitted dose curve at least 0.9, where 1 is the maximum; inconclusive = response in the unintended direction; inactive = score below 0.9.
Hi there, use one of these labels in your reply, thanks! 1 (yes) for active, 0 (no) for inactive

INSERT INTO measurements (molecule, qualitative_label) VALUES
  ('CC(O)COc1ccccc1 (stereo not given)', '0 (no)'),
  ('CC1CNCC(C)O1 (stereo not given)', '0 (no)'),
  ('CCCCN(C)C', '0 (no)'),
  ('CCCCCCc1ccc(N)cc1', '0 (no)'),
  ('COc1cc([N+](=O)[O-])ccc1N', '0 (no)');

Which outcome did this test record for the molecule CCC(C)c1nccnc1OC (stereo not given) ?
0 (no)

Which outcome did this test record for the molecule O=C(F)C(F)(F)C(F)(F)C(F)(F)C(F)F ?
0 (no)

Which outcome did this test record for the molecule O=C(c1ccccc1)c1ccccc1 ?
0 (no)

Which outcome did this test record for the molecule CCOC=O ?
0 (no)
